Test system: Hs578T
Experiment: normalised response (% of control), CellTiter-Glo; higher = more viable cells (100 = DMSO, 0 = benzethonium chloride kill control)
Settings: incubation time: 72 h
# normalised response per record follows
property.label: normalised response (%)

[
  {
    "compound": "CCN1CCN(c2ccc(Nc3cc(N(C)C(=O)Nc4c(Cl)c(OC)cc(OC)c4Cl)ncn3)cc2)CC1 [NVP-BGJ398] (10 nM)",
    "property.label": "normalised response",
    "measured.number": 99.9
  },
  {
    "compound": "CC(=O)O[C@]1(C(C)=O)CC[C@H]2[C@@H]3C=C(C)C4=CC(=O)CC[C@]4(C)[C@H]3CC[C@@]21C [Megestrol acetate] (100 nM)",
    "property.label": "normalised response",
    "measured.number": 106
  },
  {
    "compound": "Nc1nc(Cl)nc2c1ncn2[C@H]1C[C@H](O)[C@@H](CO)O1 [Cladribine] (10 nM)",
    "property.label": "normalised response",
    "measured.number": 101
  },
  {
    "compound": "CS(=O)(=O)c1ccc(C(=O)Nc2ccc(Cl)c(-c3ccccn3)c2)c(Cl)c1 [Vismodegib] (100 nM)",
    "property.label": "normalised response",
    "measured.number": 95.5
  },
  {
    "compound": "C=CC[C@@H]1/C=C(\\C)C[C@H](C)C[C@H](OC)[C@H]2O[C@@](O)(C(=O)C(=O)N3CCCC[C@H]3C(=O)O[C@H](/C(C)=C/[C@@H]3CC[C@@H](O)[C@H](OC)C3)[C@H](C)[C@@H](O)CC1=O)[C@H](C)C[C@@H]2OC [Tacrolimus] (100 nM)",
    "property.label": "normalised response",
    "measured.number": 96.5
  },
  {
    "compound": "Nc1ccn([C@@H]2O[C@H](CO)[C@@H](O)[C@@H]2O)c(=O)n1 [Cytarabine] (100 nM)",
    "property.label": "normalised response",
    "measured.number": 96.7
  },
  {
    "compound": "OC[C@H]1O[C@@H](n2cnc3c2N=CNC[C@H]3O)C[C@@H]1O [Pentostatin] (100 nM)",
    "property.label": "normalised response",
    "measured.number": 104
  }
]

====

Tested on: HDQ-P1
Assay: drug sensitivity score (DSS), CellTiter-Glo (DSS (AUC-based score)); higher = stronger drug effect (viability inhibition or cytotoxicity); extreme values may be limits of the assay
Conditions: incubation time: 72 h
property.label: drug sensitivity score

[
  {
    "molecule": "CS(=O)(=O)c1ccc(C(=O)Nc2ccc(Cl)c(-c3ccccn3)c2)c(Cl)c1",
    "result": 0
  },
  {
    "molecule": "Nc1ccn([C@@H]2O[C@H](CO)[C@@H](O)[C@@H]2O)c(=O)n1",
    "result": 1.06
  },
  {
    "molecule": "Cc1c2oc3c(C)ccc(C(=O)N[C@@H]4C(=O)N[C@H](C(C)C)C(=O)N5CCC[C@H]5C(=O)N(C)CC(=O)N(C)[C@@H](C(C)C)C(=O)O[C@@H]4C)c3nc-2c(C(=O)N[C@@H]2C(=O)N[C@H](C(C)C)C(=O)N3CCC[C@H]3C(=O)N(C)CC(=O)N(C)[C@@H](C(C)C)C(=O)O[C@@H]2C)c(N)c1=O",
    "result": 24.4
  },
  {
    "molecule": "CC(=O)O[C@]1(C(C)=O)CC[C@H]2[C@@H]3C=C(C)C4=CC(=O)CC[C@]4(C)[C@H]3CC[C@@]21C [Megestrol acetate]",
    "result": 0
  },
  {
    "molecule": "CO[C@H]1C[C@@H]2CC[C@@H](C)[C@@](O)(O2)C(=O)C(=O)N2CCCC[C@H]2C(=O)O[C@H]([C@H](C)C[C@@H]2CC[C@@H](OC(=O)C(C)(CO)CO)[C@H](OC)C2)CC(=O)[C@H](C)/C=C(\\C)[C@@H](O)[C@@H](OC)C(=O)[C@H](C)C[C@H](C)/C=C/C=C/C=C/1C",
    "result": 4.08
  }
]
